- ASSAY_TARGET: Protein deacetylase HDAC6 (Homo sapiens, UniProt Q9UBN7)
- Sequence (Q9UBN7 whole entry): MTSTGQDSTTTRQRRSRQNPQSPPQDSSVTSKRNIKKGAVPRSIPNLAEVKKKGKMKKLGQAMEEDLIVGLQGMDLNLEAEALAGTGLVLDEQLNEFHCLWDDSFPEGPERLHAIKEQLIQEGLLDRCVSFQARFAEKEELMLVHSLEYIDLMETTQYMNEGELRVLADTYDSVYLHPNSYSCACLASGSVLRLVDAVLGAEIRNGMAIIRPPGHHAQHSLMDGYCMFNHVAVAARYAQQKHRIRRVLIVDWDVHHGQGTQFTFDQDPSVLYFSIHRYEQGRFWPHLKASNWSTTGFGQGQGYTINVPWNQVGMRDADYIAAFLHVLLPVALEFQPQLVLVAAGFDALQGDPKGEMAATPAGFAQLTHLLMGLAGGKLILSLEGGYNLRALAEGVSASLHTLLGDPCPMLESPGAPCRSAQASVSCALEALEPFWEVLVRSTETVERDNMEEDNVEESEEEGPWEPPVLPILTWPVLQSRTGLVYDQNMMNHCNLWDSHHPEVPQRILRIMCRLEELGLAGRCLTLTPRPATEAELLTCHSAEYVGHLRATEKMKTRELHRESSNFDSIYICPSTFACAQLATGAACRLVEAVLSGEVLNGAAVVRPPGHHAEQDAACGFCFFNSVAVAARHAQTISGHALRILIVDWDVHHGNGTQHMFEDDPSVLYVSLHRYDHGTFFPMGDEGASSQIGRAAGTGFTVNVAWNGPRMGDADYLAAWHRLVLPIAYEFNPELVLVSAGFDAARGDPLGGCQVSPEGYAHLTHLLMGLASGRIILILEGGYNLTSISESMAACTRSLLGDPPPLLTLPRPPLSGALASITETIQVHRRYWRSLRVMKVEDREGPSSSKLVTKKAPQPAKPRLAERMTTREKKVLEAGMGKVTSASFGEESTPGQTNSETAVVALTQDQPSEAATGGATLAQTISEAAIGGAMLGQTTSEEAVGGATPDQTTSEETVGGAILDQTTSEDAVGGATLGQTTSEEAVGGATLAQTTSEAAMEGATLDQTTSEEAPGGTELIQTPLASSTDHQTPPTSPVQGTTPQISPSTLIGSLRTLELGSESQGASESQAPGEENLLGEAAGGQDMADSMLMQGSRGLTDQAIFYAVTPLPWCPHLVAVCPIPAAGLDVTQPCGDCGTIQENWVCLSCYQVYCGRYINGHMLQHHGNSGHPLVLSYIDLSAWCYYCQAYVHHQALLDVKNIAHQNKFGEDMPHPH
- ASSAY_METHOD_TEXT: Inhibition of human recombinant HDAC6 after 30 mins by fluorescence assay
pIC50: −log10 of the molar value.
MEASURED_QUANTITY: pIC50

smiles_structure=O=C(CCCC(=O)NCCc1ccccc1)NO experimental_value=6.41

---

- ASSAY_METHOD_TEXT: Cytotoxicity against human HDF after 72 hrs by MTS-PMS assay
- CONDITION_CONTEXT: HDF cells
MEASURED_QUANTITY: GI50 at 72 h

smiles_structure=CCOC(=O)NCCCC(=O)NCCc1ccccc1 experimental_value="> 100 µM"
smiles_structure=O=C(CCCC(=O)NCCc1ccccc1)NO experimental_value="> 100 µM"

Sourced from ChEMBL document CHEMBL3085682
